TARGET_DESC: T1, hBCMA (human BCMA) (Homo sapiens, UniProt Q02223)
T1 sequence (Q02223 1-184): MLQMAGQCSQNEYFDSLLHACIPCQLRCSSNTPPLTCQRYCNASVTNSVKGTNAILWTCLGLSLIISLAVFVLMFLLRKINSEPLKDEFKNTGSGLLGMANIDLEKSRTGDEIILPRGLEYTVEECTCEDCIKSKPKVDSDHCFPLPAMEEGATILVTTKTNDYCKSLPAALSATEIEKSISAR
ASSAY_DETAILS: Kinetics and affinity of hBCMA/human IgG interactions by SPR (Bio-Rad Proteon XPR36)
Assay type: binding
CONDITION_CONTEXT: human BCMA, 37° C.
PROPERTY_LABEL: kd Human (s⁻¹)
Report only the number, with the unit s⁻¹ understood.

Use these answered entries as a reference point.
molecule="A02_Rd4_6 nM_C05: anti-BCMA antibody (antibody, V domains shown) VH: EVQLLESGGGLVQPGGSLRLSCAASGFTFSSYAMNWVRQAPGKGLEWVSAIFASGGSTYYADSVKGRFTISRDNSKNTLYLQMNSLRAEDTAVYYCARYWPMTPWGQGTLVTVSS VL: EIVLTQSPGTLSLSPGERATLSCRASQSVSSSYLAWYQQKPGQAPRLLMYDASIRATGIPDRFSGSGSGTDFTLTISRLEPEDFAVYYCQQYQRWPLTFGQGTKVEIK" data_value=0.000308
molecule="A02_Rd4_6 nM_C23: anti-BCMA antibody (antibody, V domains shown) VH: EVQLLESGGGLVQPGGSLRLSCAASGFTFSSYAMNWVRQAPGKGLEWVSAISDSGGSGWYADSVKGRFTISRDNSKNTLYLQMNSLRAEDTAVYYCARYWPMSLWGQGTLVTVSS VL: EIVLTQSPGTLSLSPGERATLSCRASQSVSVEYLAWYQQKPGQAPRLLMYDASIRATGIPDRFSGSGSGTDFTLTISRLEPEDFAVYYCQQYARWPLTFGQGTKVEIK" data_value=0.000255
molecule="C01_Rd4_0.6 nM_C27: anti-BCMA antibody (antibody, V domains shown) VH: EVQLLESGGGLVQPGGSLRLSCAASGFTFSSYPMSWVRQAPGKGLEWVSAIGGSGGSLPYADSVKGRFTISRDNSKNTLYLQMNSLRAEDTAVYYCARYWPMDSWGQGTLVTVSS VL: EIVLTQSPGTLSLSPGERATLSCRASQSVSSTYLAWYQQKPGQAPRLLIYDASSRAPGIPDRFSGSGSGTDFTLTISRLEPEDFAVYYCQQYSRWPLTFGQGTKVEIK" data_value=0.00374
molecule="A02_Rd4_0.6 nM_C10: anti-BCMA antibody (antibody, V domains shown) VH: EVQLLESGGGLVQPGGSLRLSCAASGFTFSSYAMNWVRQAPGKGLEWVSAISGWGGSLPYADSVKGRFTISRDNSKNTLYLQMNSLRAEDTAVYYCARYWPMDSWGQGTLVTVSS VL: EIVLTQSPGTLSLSPGERATLSCRASQSVSAQYLAWYQQKPGQAPRLLMYDASIRATGIPDRFSGSGSGTDFTLTISRLEPEDFAVYYCQQYQRWPLTFGQGTKVEIK" data_value=0.000296

--- query ---
# lookup: kd Human of A02_Rd4_6 nM_C10: anti-BCMA antibody (antibody, V domains shown) VH: EVQLLESGGGLVQPGGSLRLSCAASGFTFSSYAMNWVRQAPGKGLEWVSAISDSGGSCWYADSVKGRFTISRDNSKNTLYLQMNSLRAEDTAVYYCARYWPMTPWGQGTLVTVSS VL: EIVLTQSPGTLSLSPGERATLSCRASQSVEMSYLAWYQQKPGQAPRLLMYDASIRATGIPDRFSGSGSGTDFTLTISRLEPEDFAVYYCQQYAHWPLTFGQGTKVEIK 0.000315
